target: Breast Cancer Resistance Protein (BCRP) (Homo sapiens, UniProt Q9UNQ0); test: inhibition of [3H]-MTX efflux from MDCKII-BCRP transfected cells and SV40-HCEC
Sequence (Q9UNQ0 whole entry): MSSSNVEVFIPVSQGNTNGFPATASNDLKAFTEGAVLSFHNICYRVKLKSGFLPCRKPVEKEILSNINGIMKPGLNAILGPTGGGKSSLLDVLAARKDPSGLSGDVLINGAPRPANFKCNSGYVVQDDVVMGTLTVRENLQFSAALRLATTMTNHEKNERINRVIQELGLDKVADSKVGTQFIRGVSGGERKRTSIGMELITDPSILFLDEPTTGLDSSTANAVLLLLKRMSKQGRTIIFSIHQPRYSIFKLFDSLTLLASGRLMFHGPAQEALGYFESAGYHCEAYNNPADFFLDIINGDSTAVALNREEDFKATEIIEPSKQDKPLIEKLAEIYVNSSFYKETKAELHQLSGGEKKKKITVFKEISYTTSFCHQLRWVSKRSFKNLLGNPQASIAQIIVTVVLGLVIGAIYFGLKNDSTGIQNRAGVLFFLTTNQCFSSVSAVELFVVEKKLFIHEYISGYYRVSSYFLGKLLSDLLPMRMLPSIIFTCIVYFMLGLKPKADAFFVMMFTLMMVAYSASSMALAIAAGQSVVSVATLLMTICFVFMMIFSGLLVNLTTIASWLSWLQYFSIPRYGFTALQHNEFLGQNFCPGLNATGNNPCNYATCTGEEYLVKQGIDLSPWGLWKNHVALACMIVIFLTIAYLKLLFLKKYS
test-readout: IC50

compound_string=COc1ccc2c3c([nH]c2c1)[C@H](C=C(C)C)N1C(=O)[C@@H]2CCCN2C(=O)[C@@H]1C3 result="~10 µM"
